Molecular target: human A1 receptors (Homo sapiens)
Sequence (P30542 1-326): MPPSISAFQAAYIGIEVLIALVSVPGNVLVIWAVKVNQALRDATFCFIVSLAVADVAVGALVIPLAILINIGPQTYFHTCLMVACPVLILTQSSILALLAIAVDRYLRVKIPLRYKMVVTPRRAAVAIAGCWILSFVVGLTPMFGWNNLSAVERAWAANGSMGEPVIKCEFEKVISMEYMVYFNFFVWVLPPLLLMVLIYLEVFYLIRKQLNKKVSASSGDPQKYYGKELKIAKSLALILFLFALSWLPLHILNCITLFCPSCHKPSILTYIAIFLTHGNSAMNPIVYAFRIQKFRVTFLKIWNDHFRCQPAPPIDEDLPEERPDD
Assay: Binding at recombinant human A1 receptors expressed in HEK-293 cells vs [3H]CPX
Conditions: recombinant human A1 in HEK-293 cells
Labelling: Ki reported below 200 nM becomes rule met; at or above becomes rule not met.

compoundstructurestring=CCCn1c(=O)c2[nH]c(-c3ccc(OCC(=O)NNC(C)=O)cc3)nc2n(CCC)c1=O assignedclass="rule met"
compoundstructurestring=CCCn1c(=O)c2[nH]c(-c3ccc(OCC(=O)NN4C(=O)CCC4=O)cc3)nc2n(CCC)c1=O assignedclass="rule met"
compoundstructurestring=CCCn1c(=O)c2[nH]c(-c3ccc(OCC(=O)NN4C(=O)C(C)=C(C)C4=O)cc3)nc2n(CCC)c1=O assignedclass="rule not met"
compoundstructurestring=CCCn1c(=O)c2[nH]c(-c3ccc(OCC(=O)NN4C(=O)c5ccccc5C4=O)cc3)nc2n(CCC)c1=O assignedclass="rule not met"

---

Molecular target: human A2A receptors (Homo sapiens, UniProt P29274)
Construct: expressed in transfected cells; host or cells: HEK-293
Sequence (P29274 whole entry): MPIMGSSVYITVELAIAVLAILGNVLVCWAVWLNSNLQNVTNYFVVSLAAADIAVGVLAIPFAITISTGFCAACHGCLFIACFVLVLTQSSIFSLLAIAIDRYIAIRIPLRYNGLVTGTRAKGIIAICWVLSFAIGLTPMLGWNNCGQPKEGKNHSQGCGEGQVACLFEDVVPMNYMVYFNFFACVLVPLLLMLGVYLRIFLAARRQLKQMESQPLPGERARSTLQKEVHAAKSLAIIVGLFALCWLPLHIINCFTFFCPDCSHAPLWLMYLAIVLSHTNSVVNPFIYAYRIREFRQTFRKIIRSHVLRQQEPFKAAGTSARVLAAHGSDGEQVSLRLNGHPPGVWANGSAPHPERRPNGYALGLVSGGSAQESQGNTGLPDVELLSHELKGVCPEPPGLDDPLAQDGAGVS
Test: Binding at recombinant human A2A receptors expressed in HEK-293 cells vs [125I]ZM241385
Conditions: recombinant human A2A in HEK-293 cells, read-out: Ki A2A (h) (converted)
Text: All nonradioactive compounds were initially dissolved in DMSO and diluted with buffer to the final concentration, where the amount of DMSO never exceeded 2%. […] At least six different concentrations of competitor, spanning 3 orders of magnitude adjusted appropriately for the IC50 value of each compound, were used. IC50 values, calculated with the nonlinear regression method implemented in Graph-Pad Prism (San Diego, CA) were converted to apparent Ki values as described by [Linden [1982]]. […]
Labelling: Ki reported below 400 nM becomes yes (1); at or above becomes no (0).

compound=CCCn1c(=O)c2[nH]c(-c3ccc(OCC(=O)NN4C(=O)c5ccccc5C4=O)cc3)nc2n(CCC)c1=O assignedclass="yes (1)"
compound=CCCn1c(=O)c2[nH]c(-c3ccc(OCC(=O)NN4C(=O)CCC4=O)cc3)nc2n(CCC)c1=O assignedclass="yes (1)"
compound=CCCn1c(=O)c2[nH]c(-c3ccc(OCC(=O)NNC(=O)CCC(=O)O)cc3)nc2n(CCC)c1=O assignedclass="no (0)"
compound=CCCn1c(=O)c2[nH]c(-c3ccc(OCC(=O)NNC(=O)CNC(=O)CNC(=O)OCc4ccccc4)cc3)nc2n(CCC)c1=O assignedclass="no (0)"
compound=CCCn1c(=O)c2[nH]c(-c3ccc(OCC(=O)NN4C(=O)C(C)=C(C)C4=O)cc3)nc2n(CCC)c1=O assignedclass="no (0)"
compound="CCCn1c(=O)c2[nH]c(-c3ccc(OCC(=O)NN4C(=O)C5CC=CCC5C4=O)cc3)nc2n(CCC)c1=O (stereo not shown) [Compound 18b]" assignedclass="yes (1)"
compound=CCCn1c(=O)c2[nH]c(-c3ccc(OCC(=O)NNC(C)=O)cc3)nc2n(CCC)c1=O assignedclass="yes (1)"
compound="CCCn1c(=O)c2[nH]c(-c3ccc(OCC(=O)NN4C(=O)CC[C@H](NC(=O)C(F)(F)F)C4=O)cc3)nc2n(CCC)c1=O [Compound 24b]" assignedclass="yes (1)"
compound=CCCn1c(=O)[nH]c(=O)c2[nH]c(-c3ccc(OCC(=O)NN4C(=O)C(C)=C(C)C4=O)cc3)nc21 assignedclass="no (0)"
compound=CCCn1c(=O)c2[nH]c(-c3ccc(OCC(=O)OCC)cc3)nc2n(CCC)c1=O assignedclass="yes (1)"
